Origin of measurements: ChEMBL document CHEMBL1125523

- SUBJECT OF TEST: Serotonin 2 (5-HT2) receptor (Homo sapiens, UniProt P41595+P28223+P28335)
- ASSAY NOTES: Binding affinity towards 5-hydroxytryptamine 2 receptor expressed in CHO cell membranes using [3H]ketanserin (60 Ci/mmol, 1 nM)
Note to self: Ki under 90 nM means 1, ties and anything higher get -1.

Task item: Does the reported Ki of the following molecule sit strictly below 90 nM? COC(=O)c1cc2c3c(ccc2[nH]1)OCC(CN1CCC(n2c(O)nc4ccccc42)CC1)O3 (stereo not given)
Reply: 1

Task item: Does the reported Ki of the following molecule sit strictly below 90 nM? O=C(NCCCc1ccccc1)c1cc2c3c(ccc2[nH]1)OCC(CNCCCc1ccccc1)O3 (stereo not given)
Reply: 1

Task item: Does the reported Ki of the following molecule sit strictly below 90 nM? CCOC(=O)C1CCN(CC2COc3ccc4[nH]c(C(=O)OC)cc4c3O2)CC1 (stereo not given)
Reply: -1

Alright, here's another molecule for you.
Task item: Does the reported Ki of the following molecule sit strictly below 90 nM? N#Cc1cc2c3c(ccc2[nH]1)OCC(CN1CCC2(CC1)C(=O)NCN2c1ccccc1)O3 (stereo not given)
Reply: -1
